target: Polymerase acidic protein (Influenza A virus (strain A/Puerto Rico/8/1934 H1N1)); experiment: Inhibitory concentration against cap-dependent endonuclease activity of influenza virus RNP
Observation Type: IC50

[
  {
    "Sample Smiles": "CC(C)C=c1[nH]c(=Cc2ccc(F)cc2)c(=O)[nH]c1=O",
    "Observation Type": "IC50",
    "Endpoint Value": "> 365 µM"
  },
  {
    "Sample Smiles": "COCOn1c(=O)c(=CC(C)C)[nH]c(=CC(C)C)c1=O",
    "Observation Type": "IC50",
    "Endpoint Value": "> 355 µM"
  }
]
